study-system: Mu-type opioid receptor (Homo sapiens, UniProt P35372)
Sequence (P35372 whole entry): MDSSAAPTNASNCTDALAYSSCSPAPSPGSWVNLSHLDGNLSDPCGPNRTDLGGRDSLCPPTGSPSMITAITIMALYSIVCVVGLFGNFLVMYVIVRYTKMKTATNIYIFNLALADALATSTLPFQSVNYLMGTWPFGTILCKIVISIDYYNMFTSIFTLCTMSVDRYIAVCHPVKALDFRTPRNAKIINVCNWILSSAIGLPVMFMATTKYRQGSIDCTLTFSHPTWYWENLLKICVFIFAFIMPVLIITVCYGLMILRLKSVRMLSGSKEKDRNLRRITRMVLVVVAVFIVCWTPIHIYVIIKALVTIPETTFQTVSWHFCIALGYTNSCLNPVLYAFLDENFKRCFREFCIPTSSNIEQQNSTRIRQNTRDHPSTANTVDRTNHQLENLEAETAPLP
protocol-text: Binding affinity to human mu opioid assessed as stimulation of GDP-induced [35S]GTPgammaS binding at 10 uM
Type: functional
quantity: Activity (%)
Enter your answer as a number in %; do not include the unit.

Data request, read-out Activity, for COc1ccc(CC2(O)CC3CCC(C2)N3C(c2ccccc2Cl)c2ccc(C)cc2Cl)nc1 (stereo not given) 31

Data request, read-out Activity, for Cc1ccc(C(c2ccccc2Cl)N2C3CCC2CC(O)(C2CCNC2=O)C3)c(Cl)c1 (stereo not given) 60

Data request, read-out Activity, for O/N=C/C1(c2ccccc2)CC2CCC(C1)N2C(c1ccccc1Cl)c1ccccc1Cl (stereo not given) 29

Data request, read-out Activity, for Cc1ccc(C(c2ccccc2Cl)N2C3CCC2CC(O)(C2=NCCCN2)C3)c(Cl)c1 (stereo not given) 29

Data request, read-out Activity, for O=C(NC1(c2ccccc2)CC2CCC(C1)N2C(c1ccccc1Cl)c1ccccc1Cl)C1CC1 (stereo not given) 25

###

protocol-text: Half life in rat at 3 mg/kg, po
Assay type: ADME, organism-based
Design: dose 3 mg/kg, route oral
test-context: in vivo
quantity: half-life

Data request, read-out half-life, for NC(=O)C1(c2ccccc2)CC2CCC(C1)N2C(c1ccccc1Cl)c1ccccc1Cl (configuration not stated) 1.8 h

Data request, read-out half-life, for NC(=O)C1(c2ccc(F)cc2)CC2CCC(C1)N2C(c1ccccc1Cl)c1ccccc1Cl (configuration not stated) 1.8 h

###

study-system: Nuclear receptor subfamily 1 group I member 2 (Homo sapiens, UniProt O75469)
Sequence (O75469 whole entry): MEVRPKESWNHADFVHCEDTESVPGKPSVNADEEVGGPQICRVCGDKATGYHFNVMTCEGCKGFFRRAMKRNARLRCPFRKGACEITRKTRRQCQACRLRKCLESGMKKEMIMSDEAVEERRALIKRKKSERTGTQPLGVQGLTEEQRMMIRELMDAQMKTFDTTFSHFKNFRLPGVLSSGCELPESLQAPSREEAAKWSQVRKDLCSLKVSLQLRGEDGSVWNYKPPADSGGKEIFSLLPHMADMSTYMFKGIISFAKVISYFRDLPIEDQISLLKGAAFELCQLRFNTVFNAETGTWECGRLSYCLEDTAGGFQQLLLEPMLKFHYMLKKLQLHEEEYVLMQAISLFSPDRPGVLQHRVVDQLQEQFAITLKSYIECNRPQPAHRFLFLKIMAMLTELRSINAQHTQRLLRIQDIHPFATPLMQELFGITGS
protocol-text: Activity at human PXR assessed as induction of CYP3A4 activity in human hepatocytes at 1 uM relative to rifampicin
Assay type: cell-based, Hepatocyte
Label scheme for Ratio: lower than 0.3 is 0 (no), 0.3 and above is 1 (yes).

Is it the case that NC(=O)C1(c2ccc(F)cc2)CC2CCC(C1)N2C(c1ccccc1Cl)c1ccccc1Cl (stereo unspecified) has Ratio reaching or exceeding 0.3? 0 (no)

Is it the case that NC(=O)C1(c2ccc(Cl)cc2)CC2CCC(C1)N2C(c1ccccc1Cl)c1ccccc1Cl (stereo unspecified) has Ratio reaching or exceeding 0.3? 0 (no)

Is it the case that COc1ccc(C2(C(N)=O)CC3CCC(C2)N3C(c2ccccc2Cl)c2ccccc2Cl)cc1 (stereo unspecified) has Ratio reaching or exceeding 0.3? 0 (no)

Is it the case that NC(=O)c1ccc(C2(C(N)=O)CC3CCC(C2)N3C(c2ccccc2Cl)c2ccccc2Cl)cc1 (stereo unspecified) has Ratio reaching or exceeding 0.3? 0 (no)

Is it the case that NC(=O)C1(c2ccc(OC(F)(F)F)cc2)CC2CCC(C1)N2C(c1ccccc1Cl)c1ccccc1Cl (stereo unspecified) has Ratio reaching or exceeding 0.3? 0 (no)

Is it the case that NC(=O)C1(c2ccc(Br)cc2)CC2CCC(C1)N2C(c1ccccc1Cl)c1ccccc1Cl (stereo unspecified) has Ratio reaching or exceeding 0.3? 0 (no)

Is it the case that CNC(=O)C1(c2ccccc2)CC2CCC(C1)N2C(c1ccccc1Cl)c1ccccc1Cl (stereo unspecified) has Ratio reaching or exceeding 0.3? 1 (yes)

Is it the case that CCNC(=O)C1(c2ccccc2)CC2CCC(C1)N2C(c1ccccc1Cl)c1ccccc1Cl (stereo unspecified) has Ratio reaching or exceeding 0.3? 1 (yes)

Is it the case that COCCNC(=O)C1(c2ccccc2)CC2CCC(C1)N2C(c1ccccc1Cl)c1ccccc1Cl (stereo unspecified) has Ratio reaching or exceeding 0.3? 1 (yes)

Is it the case that CC(C)NC(=O)C1(c2ccccc2)CC2CCC(C1)N2C(c1ccccc1Cl)c1ccccc1Cl (stereo unspecified) has Ratio reaching or exceeding 0.3? 1 (yes)

Is it the case that CC(O)CNC(=O)C1(c2ccccc2)CC2CCC(C1)N2C(c1ccccc1Cl)c1ccccc1Cl (stereo unspecified) has Ratio reaching or exceeding 0.3? 1 (yes)

###

study-system: Cytochrome P450 2C9 (Homo sapiens, UniProt P11712)
Sequence (P11712 whole entry): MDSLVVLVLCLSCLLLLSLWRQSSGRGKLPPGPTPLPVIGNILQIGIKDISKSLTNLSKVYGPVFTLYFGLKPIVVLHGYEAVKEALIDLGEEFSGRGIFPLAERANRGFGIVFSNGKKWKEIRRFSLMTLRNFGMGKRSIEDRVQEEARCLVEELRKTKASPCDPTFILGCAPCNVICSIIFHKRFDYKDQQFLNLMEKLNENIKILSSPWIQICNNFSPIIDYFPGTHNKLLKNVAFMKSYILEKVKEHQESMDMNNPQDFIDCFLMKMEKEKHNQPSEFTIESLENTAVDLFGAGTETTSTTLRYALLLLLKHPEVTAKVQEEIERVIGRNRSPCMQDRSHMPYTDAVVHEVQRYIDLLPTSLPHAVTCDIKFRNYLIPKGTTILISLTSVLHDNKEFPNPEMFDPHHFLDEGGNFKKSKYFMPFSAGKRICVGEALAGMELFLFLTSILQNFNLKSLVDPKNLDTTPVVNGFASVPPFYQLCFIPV
protocol-text: Inhibition of CYP2C9 pre-incubated before addition of substrate
Assay type: ADME
quantity: pIC50
Worth noting: pIC50 values are minus log10 of concentrations stated in mol/L.

Data request, read-out pIC50, for NC(=O)C1(c2ccccc2)CC2CCC(C1)N2C(c1ccccc1Cl)c1ccccc1Cl (stereo unspecified) 4.72

###

study-system: Cytochrome P450 2C9 (Homo sapiens)
protocol-text: Inhibition of CYP2C9 co-incubated with substrate
Assay type: ADME
quantity: IC50 (µM)
Enter your answer as a number in µM; do not include the unit.

Data request, read-out IC50, for NC(=O)C1(c2ccccc2)CC2CCC(C1)N2C(c1ccccc1Cl)c1ccccc1Cl (stereo unspecified) 8

###

quantity: Ki (µM)
Enter your answer as a number in µM; do not include the unit.

Hi! What's the reported Ki for Cc1ccc(C(c2ccccc2Cl)N2C3CCC2CC(O)(C2CCNC2=O)C3)c(Cl)c1 (centres undefined) on Mu-type opioid receptor (Homo sapiens)? 0.781

Hi! What's the reported Ki for CNC(=O)C1(c2ccccc2)CC2CCC(C1)N2C(c1ccccc1Cl)c1ccccc1Cl (centres undefined) on Mu-type opioid receptor (Homo sapiens)? 0.05

Hi! What's the reported Ki for OC1(c2cccnc2)CC2CCC(C1)N2C(c1ccccc1Cl)c1ccccc1Cl (centres undefined) on Mu-type opioid receptor (Homo sapiens)? 0.042

Hi! What's the reported Ki for OC1(c2ccccc2)CC2CCC(C1)N2C(c1ccccc1)c1ccccc1 (centres undefined) on Mu-type opioid receptor (Homo sapiens)? 0.094

###

Can you tell me log10(Ki) for the items I'm about to list?
The figures below represent log10 of Ki, where Ki is stated in nM.

Hi! What's the reported log10(Ki) for NC1(c2ccccc2)CC2CCC(C1)N2C(c1ccccc1Cl)c1ccccc1Cl (centres undefined) on Mu-type opioid receptor (Homo sapiens, UniProt P35372)? 2.66

Hi! What's the reported log10(Ki) for COC(=O)NC1(c2ccccc2)CC2CCC(C1)N2C(c1ccccc1Cl)c1ccccc1Cl (centres undefined) on Mu-type opioid receptor (Homo sapiens, UniProt P35372)? 2.76

Hi! What's the reported log10(Ki) for NC(=O)C1(c2ccc(Cl)cc2)CC2CCC(C1)N2C(c1ccccc1Cl)c1ccccc1Cl (centres undefined) on Mu-type opioid receptor (Homo sapiens, UniProt P35372)? 1.74

Hi! What's the reported log10(Ki) for Cc1ccnc(C2(O)CC3CCC(C2)N3C(c2ccccc2Cl)c2ccc(C)cc2Cl)c1 (centres undefined) on Mu-type opioid receptor (Homo sapiens, UniProt P35372)? 2.85

Hi! What's the reported log10(Ki) for O=C(O)C1(c2ccccc2)CC2CCC(C1)N2C(c1ccccc1Cl)c1ccccc1Cl (centres undefined) on Mu-type opioid receptor (Homo sapiens, UniProt P35372)? 2.09

Hi! What's the reported log10(Ki) for Cc1ccc(C(c2ccccc2Cl)N2C3CCC2CC(O)(C2CCCN2Cc2ccccc2)C3)c(Cl)c1 (centres undefined) on Mu-type opioid receptor (Homo sapiens, UniProt P35372)? 3.19

Hi! What's the reported log10(Ki) for O=C(NC1(c2ccccc2)CC2CCC(C1)N2C(c1ccccc1Cl)c1ccccc1Cl)C1CC1 (centres undefined) on Mu-type opioid receptor (Homo sapiens, UniProt P35372)? 3.00

Hi! What's the reported log10(Ki) for CC(O)CNC(=O)C1(c2ccccc2)CC2CCC(C1)N2C(c1ccccc1Cl)c1ccccc1Cl (centres undefined) on Mu-type opioid receptor (Homo sapiens, UniProt P35372)? 1.76

Hi! What's the reported log10(Ki) for CNC(=O)NC1(c2ccccc2)CC2CCC(C1)N2C(c1ccccc1Cl)c1ccccc1Cl (centres undefined) on Mu-type opioid receptor (Homo sapiens, UniProt P35372)? 1.43

###

Can you tell me bioavailability for the items I'm about to list?
protocol-text: Oral bioavailability in rat at 3 mg/kg
Assay type: ADME, organism-based
test-context: in vivo
Enter your answer as a number in %; do not include the unit.

Data request, read-out bioavailability, for NC(=O)C1(c2ccccc2)CC2CCC(C1)N2C(c1ccccc1Cl)c1ccccc1Cl (configuration not stated) 37

Data request, read-out bioavailability, for NC(=O)C1(c2ccc(F)cc2)CC2CCC(C1)N2C(c1ccccc1Cl)c1ccccc1Cl (configuration not stated) 45

###

study-system: Mu-type opioid receptor (Homo sapiens, UniProt P35372)
protocol-text: Agonist activity at human mu opioid assessed as stimulation of GDP-induced [35S]GTPgammaS binding
Type: functional
Can you tell me EC50 for the items I'm about to list?
Enter your answer as a number in nM; do not include the unit.

Hi! What's the reported EC50 for OC1(c2ccccc2)CC2CCC(C1)N2C(c1ccccc1Cl)c1ccccc1Cl (centres undefined) on Mu-type opioid receptor (Homo sapiens, UniProt P35372)? 337

Hi! What's the reported EC50 for NC(=O)C1(c2ccc(F)cc2)CC2CCC(C1)N2C(c1ccccc1Cl)c1ccccc1Cl (centres undefined) on Mu-type opioid receptor (Homo sapiens, UniProt P35372)? 947

Hi! What's the reported EC50 for Cc1ccc(C(c2ccccc2Cl)N2C3CCC2CC(O)(C2CCCC2)C3)c(Cl)c1 (centres undefined) on Mu-type opioid receptor (Homo sapiens, UniProt P35372)? 709

Hi! What's the reported EC50 for COC(=O)NC1(c2ccccc2)CC2CCC(C1)N2C(c1ccccc1Cl)c1ccccc1Cl (centres undefined) on Mu-type opioid receptor (Homo sapiens, UniProt P35372)? 782

Hi! What's the reported EC50 for OCC1(c2ccccc2)CC2CCC(C1)N2C(c1ccccc1Cl)c1ccccc1Cl (centres undefined) on Mu-type opioid receptor (Homo sapiens, UniProt P35372)? 2140

Hi! What's the reported EC50 for Cc1ccc(C(c2ccccc2Cl)N2C3CCC2CC(O)(c2cccc(F)c2)C3)c(Cl)c1 (centres undefined) on Mu-type opioid receptor (Homo sapiens, UniProt P35372)? 894

Hi! What's the reported EC50 for NC1(c2ccccc2)CC2CCC(C1)N2C(c1ccccc1Cl)c1ccccc1Cl (centres undefined) on Mu-type opioid receptor (Homo sapiens, UniProt P35372)? 4520

Hi! What's the reported EC50 for COC1(c2ccccc2)CC2CCC(C1)N2C(c1ccccc1Cl)c1ccccc1Cl (centres undefined) on Mu-type opioid receptor (Homo sapiens, UniProt P35372)? 545

Hi! What's the reported EC50 for Cc1ccc(C(c2ccccc2Cl)N2C3CCC2CC(O)(c2ccncn2)C3)c(Cl)c1 (centres undefined) on Mu-type opioid receptor (Homo sapiens, UniProt P35372)? 1690
